Please provide measured pKd for the entries that follow.
assaySystem: T1, recombinant human ROR1 extracellular domain (human, UniProt Q01973 30-406)
T1 construct: biotinylated for the filter lifts; also called huROR1-ECD; human ROR1-ECD
T1 sequence (Q01973 30-406 limits assumed): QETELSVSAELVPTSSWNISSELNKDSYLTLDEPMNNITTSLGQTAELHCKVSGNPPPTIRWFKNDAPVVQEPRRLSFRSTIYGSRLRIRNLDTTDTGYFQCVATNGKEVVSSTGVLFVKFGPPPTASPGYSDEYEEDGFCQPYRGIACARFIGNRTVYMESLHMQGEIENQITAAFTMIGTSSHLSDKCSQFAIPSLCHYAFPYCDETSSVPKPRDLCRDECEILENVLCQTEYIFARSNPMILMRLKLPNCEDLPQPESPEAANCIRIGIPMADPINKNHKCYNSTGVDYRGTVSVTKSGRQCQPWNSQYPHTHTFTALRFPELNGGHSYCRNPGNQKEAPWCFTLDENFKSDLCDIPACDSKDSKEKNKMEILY
protocolNotes: ELISA, soluble Fab on coated huROR1-ECD
The meaning of pKd here: minus log10 of the concentration in molar units.

Task: If you can, please state the reported pKd value of Ab1 Fab variant L2 Q71T (Fab, V domains shown, Fab; also called SGSTLTS) VH: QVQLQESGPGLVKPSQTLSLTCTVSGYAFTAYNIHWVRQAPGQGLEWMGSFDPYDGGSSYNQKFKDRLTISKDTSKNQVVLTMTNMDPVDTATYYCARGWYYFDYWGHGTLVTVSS VL: DIVMTQTPLSLPVTPGEPASISCRASKSISKYLAWYQQKPGQAPRLLIYSGSTLTSGIPPRFSGSGYGTDFTLTINNIESEDAAYYFCQQHDESPYTFGEGTKVEIK .
Result: 8.96

Task: If you can, please state the reported pKd value of Ab1 Fab variant L1 I31V (Fab, V domains shown, Fab) VH: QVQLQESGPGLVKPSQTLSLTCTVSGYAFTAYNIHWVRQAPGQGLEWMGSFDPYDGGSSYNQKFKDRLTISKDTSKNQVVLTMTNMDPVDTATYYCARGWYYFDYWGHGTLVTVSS VL: DIVMTQTPLSLPVTPGEPASISCRASKSVSKYLAWYQQKPGQAPRLLIYSGSTLQSGIPPRFSGSGYGTDFTLTINNIESEDAAYYFCQQHDESPYTFGEGTKVEIK .
Result: 8.55

Task: If you can, please state the reported pKd value of Ab1 Fab variant H2 G67Y (Fab, V domains shown, Fab) VH: QVQLQESGPGLVKPSQTLSLTCTVSGYAFTAYNIHWVRQAPGQGLEWMGSFDPYDGYSSYNQKFKDRLTISKDTSKNQVVLTMTNMDPVDTATYYCARGWYYFDYWGHGTLVTVSS VL: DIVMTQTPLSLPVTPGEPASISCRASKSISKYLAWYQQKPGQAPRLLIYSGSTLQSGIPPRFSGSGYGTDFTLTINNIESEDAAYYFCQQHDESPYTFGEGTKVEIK .
Result: 8.20

Task: If you can, please state the reported pKd value of Ab1 Fab variant H1 N40R (Fab, V domains shown) VH: QVQLQESGPGLVKPSQTLSLTCTVSGYAFTAYRIHWVRQAPGQGLEWMGSFDPYDGGSSYNQKFKDRLTISKDTSKNQVVLTMTNMDPVDTATYYCARGWYYFDYWGHGTLVTVSS VL: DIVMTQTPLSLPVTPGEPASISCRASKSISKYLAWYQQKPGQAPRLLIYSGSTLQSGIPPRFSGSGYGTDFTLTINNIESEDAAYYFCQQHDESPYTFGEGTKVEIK .
Result: 7.37

Task: If you can, please state the reported pKd value of Ab1 Fab variant H1 F31I (Fab, V domains shown, Fab) VH: QVQLQESGPGLVKPSQTLSLTCTVSGYAITAYNIHWVRQAPGQGLEWMGSFDPYDGGSSYNQKFKDRLTISKDTSKNQVVLTMTNMDPVDTATYYCARGWYYFDYWGHGTLVTVSS VL: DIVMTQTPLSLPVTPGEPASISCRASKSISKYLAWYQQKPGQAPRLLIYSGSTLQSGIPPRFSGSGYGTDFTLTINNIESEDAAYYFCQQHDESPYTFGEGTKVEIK .
Result: 8.24
